Test system: OVCAR-5 ovarian
Assay Info: NCI-60 one-dose screen, 48 h
Study Conditions: 10 µM unless noted
This is part of a sample that, as a whole, favours compounds with a hit. Of some 83,000 tested, about 20% had one in any assay. Calls of active or inactive are those of the source. How the source made its calls: active means growth percent below 10; inactive means the rest.
Outcomes: T (active), F (inactive)

Molecule	Class Name
COP(=S)(N1CC1)N1CC1	F
CC(C)(C)C(=O)OCOP(=O)(NCc1ccccc1)C1CCCN(O)C1=O (centres undefined)	F
O=C(O)C(O)C(O)C1[O][Sb]([c]2ccc([N+](=O)[O-])cc2)[O]C1CO (centres undefined)	F
Cn1cc(-c2csc(-c3cn(CCCCN4CCCCC4)c4ccccc34)n2)c2cccnc21	F
C=CCc1cc2c(cc1OCC)OCO2	F
CCCCN1CCCC[C@@H]1C(=O)N[C@H](C(=O)N(C)[C@H](C[C@@H](OC(C)=O)c1nc(C(=O)NC2CCC(C(=O)OC)CC2)cs1)C(C)C)C(C)C (some centres undefined)	F
CCN(CCO)C(Cc1ccccc1)c1ccccc1 (centres undefined)	F
CN[C@@]1(c2ccccc2Cl)CCCC[C@@H]1NCC1CCCO1 (some centres undefined)	F
COc1ccc2c(c1)c(-c1nc(-c3c[nH]c4ncccc34)cs1)cn2CCN1CCOCC1	F
CN(C)CCCOc1ccc2c(c1)c(C(=O)C(=O)NCCO)cn2Cc1ccccc1	F
Cc1cc(N(CCCl)CCCl)ccc1C=Nc1ccccc1-c1ccccc1	F
O=C(NCCN1CC1)C(=O)NCCN1CC1	F
C1CCC([PH+](C2CCCCC2)C2CCCCC2[PH+](C2CCCCC2)C2CCCCC2)CC1.O=C(C1[CH-]CCCC1)C1CCCC[N-]1.[Au] (centres undefined)	T
C=COC(=O)CCN1CC1	F
C[C@]12CC[C@H]3[C@@H](C[C@@H]4SC(Nc5ccccc5)=N[C@@]45CC(O)CC[C@]35C)[C@@H]1CCC2O (some centres undefined)	F
CC[C@]12C=CCN3CC[C@]4(C(=C(C(=O)OC)C1)Nc1cc(OC)c(OC(C)=O)cc14)[C@@H]32	F
Nc1ncnc2n[nH]nc12	F
N#C[Se]CCN1C(=O)c2ccccc2C1=O	F
CC[C@H](C)[C@H](NC(=O)[C@H]1CCCCN1C)C(=O)N(C)[C@H](CC(=O)c1nc(C(=O)N[C@@H](Cc2ccccc2)C[C@H](C)C(=O)O)cs1)C(C)C	F

---

Tested on: MCF7 breast
Assay Info: NCI-60 one-dose screen, 48 h (100 = growth as untreated, 0 = no growth, -100 = all killed)
Study Conditions: 10 µM unless noted
The panel holds about 83,000 compounds, 20% with a hit somewhere; the sample as a whole holds those more often.
Metric: growth (%)

> print(dat)
                                smiles.entry  reading
 1  COc1ccc(C2=N[C@@H](Cc3ccccc3)C(=O)Nc3ccsc32)cc1     24.1
 2  COC(=O)C12CC(NC(=O)c3csc([C@@H](C[C@H](C(C)C)N(C)C(=O)[C@@H](NC(=O)[C@H]4CCCCN4C)C4CC4)OC(C)=O)n3)(C1)C2     19.2
 3  CC(C)=CCC[C@H](C(=O)O)[C@@H]1CC[C@]2(C)C3=C(CC[C@@]12C)[C@@]1(C)CC[C@H](O)C(C)(C)[C@@H]1CC3     88.9
 4   ClCCN(CCCl)c1ccc(-n2cnc3c(Cl)ncnc32)cc1     25.7
 5                              O=NNc1ccccn1     71.4
 6  CC(C)=CCC/C(C)=C/C=N\N=C(/N)N[N+](=O)[O-]     81.1
 7                       CN(C)C(=O)Oc1ccccc1      104
 8  CC(=O)Nc1nc2c(s1)CC[C@@]1(C)C2=CC[C@H]2[C@@H]3CC[C@H](O)[C@@]3(C)CC[C@@H]21     24.6
 9  [Au+].[N-]=C=O.c1ccc(CN2[CH-]N(Cc3ccccc3)C(c3ccccc3)=C2c2ccccc2)cc1     46.1
10             O=C(CCCC1CCCCC1)OCC(Cl)(Cl)Cl     95.5
11                 CCCCCCCC[n+]1ccc2ccccc2c1     41.1

---

Test system: A549/ATCC NSCLC
Assay Info: NCI-60 one-dose screen, 48 h
Study Conditions: 10 µM unless noted
Compounds without any hit were thinned out: in the full panel of roughly 83,000, 20% have a hit. Active and inactive are the calls of the source. How the source made its calls: active means growth percent below 10; inactive means the rest.
Outcome codes: 1 for active, 0 for inactive

Compound	Class Name
C=CC1=C[C@@H]2[C@@H]3O[C@]4(CC[C@H](O4)[C@@H](C)C[C@@H](O)C3=O)C[C@H](O)C3=NCC[C@@]32CC1	1
COC(=O)C1CCC(NC(=O)c2csc([C@@H](C[C@H](C(C)C)N(C)C(=O)[C@@H](NC(=O)[C@H]3CCCCN3C)C(C)C)OC(C)=O)n2)CC1 (stereo not given in full)	0
COc1ccc(C(=O)c2cc(OC)c(OC)c(OC)c2)cc1OC(C)=O	0
CCCCCCCCCCCCCCCCCC1OC[C@@H](COC(=O)O[C@@H](C(=O)O[C@H]2C[C@@]3(O)[C@@H](OC(=O)c4ccccc4)[C@@H]4[C@]5(OC(C)=O)CO[C@@H]5C[C@H](O)[C@@]4(C)C(=O)[C@H](OC(C)=O)C(=C2C)C3(C)C)[C@@H](NC(=O)c2ccccc2)c2ccccc2)O1 (stereo not given in full)	0
CC12CCC3C(CCC4=CC(=O)CCC43CF)C1CCC2=O (stereo not given)	0

---

Test system: SK-MEL-2 melanoma
Assay Info: NCI-60 one-dose screen, 48 h
Study Conditions: 10 µM unless noted
This is part of a sample that, as a whole, favours compounds with a hit. Of some 83,000 tested, about 20% had one in any assay. Activity calls are given as the source filed them. Rule for the calls: active = growth percent below 10; inactive = the rest.
Possible outcomes: active, inactive

> print(dat)
                                   compound  class.name
1  Clc1cccc(NCOOC2(OOCNc3cccc(Cl)c3)CCCCCC2)c1    inactive
2  COC(=O)[C@@H](C)C[C@H](Cc1ccccc1)NC(=O)c1csc([C@@H](C[C@H](C(C)C)N(C)C(=O)[C@H](C)NC(=O)[C@H]2CCCCN2C)OC(C)=O)n1    inactive
3  CC(=O)OC[C@]1(C)C=C2C(=O)[C@](C)(O)C3(CC3)C(C)=C2[C@H]1O      active
4  CC(C)=CC1C(C(=O)OCc2cccc(Oc3ccccc3)c2)C1(C)C (stereo not drawn)    inactive
5  OCCNC(Cc1ccccc1)c1ccc2c(c1)OCO2 (stereo not drawn)    inactive
6       CCCc1cc(O)c2c3c(c(=O)oc2c1)CN(C)CC3    inactive
7     O=[N+]([O-])c1cc(I)cc([N+](=O)[O-])c1    inactive
8  CN(C)CC(C(=O)Cc1ccccc1)c1ccccc1 (stereo not drawn)    inactive

---

System: NCI-H460 lung
Assay Info: NCI-60 one-dose screen, 48 h
Study Conditions: 10 µM unless noted
The panel holds about 83,000 compounds, 20% with a hit somewhere; the sample as a whole holds those more often. The source made the active and inactive calls. The calls were made as follows: active = growth percent below 10; inactive = the rest.
Classes used: active, inactive

> print(dat)
                                   compound  class.name
1  O=C(CCCCCCC(=O)Nc1ccc(N(CCCl)CCCl)cc1)NO    inactive
2  O=C(CN1CCN(C(=O)c2ccco2)CC1)Nc1ccc(Cl)cc1C(=O)c1ccccc1Cl    inactive
3  COC(=O)[C@H](Cc1ccccc1)NNC(=O)c1csc([C@@H](C[C@H](C(C)C)N(C)C(=O)[C@@H](NC(=O)[C@H]2CCCCN2C)C2CC2)OC(C)=O)n1      active
4  ClCCN(CCCl)c1nc(Cl)c(C2CC(c3ccccc3)=NN2c2cc(Cl)cc(Cl)c2)s1 (stereo not given)    inactive
5       CC1CN1CCCCN1CC1C (stereo not given)    inactive

---

System: PC-3 prostate
Assay Info: NCI-60 one-dose screen, 48 h
Study Conditions: 10 µM unless noted
Compounds without any hit were thinned out: in the full panel of roughly 83,000, 20% have a hit. The source made the active and inactive calls. How the source made its calls: active means growth percent below 10; inactive means the rest.
Possible outcomes: active, inactive

Compound	Class Name
CC1=C(CNO)C2=C(C)C3(CC3)[C@@](C)(O)C(=O)C2=C1	active
CN1C(=O)C(=Cc2cn(CCCCCCn3c4ccccc4c(=O)c4ccccc43)c3ccccc23)C(=O)N(C)C1=O	inactive
COc1ccc(/C=C/c2cc(OC)c(OC)c(OC)c2)cc1NC(=O)/C=C/c1ccc(F)cc1	inactive
C[C@@H]1CCC2[C@@H](C)[C@H](OC(=O)CCC(=O)NCCNC(=O)Cc3cc(=O)oc4cc(N(C)C)ccc34)O[C@@H]3O[C@]4(C)CC[C@@H]1C23OO4 (some centres not stated)	inactive
CC(=O)O[C@H](C[C@H](C(C)C)N(C)C(=O)[C@@H](NC(=O)[C@H]1CCCN1C)C(C)C)c1nc(C(=O)N[C@@H](Cc2ccccc2)C[C@H](C)C(=O)O)c(C)s1	inactive
C/C(=C\c1ccn(-c2ccc(N)cc2C(F)(F)F)n1)[C@@H]1C[C@@H]2O[C@]2(C)CCC[C@H](C)[C@H](O)[C@@H](C)C(=O)C(C)(C)[C@@H](O)CC(=O)O1	inactive
CCOC(=O)[C@@H](C)C[C@H](Cc1ccccc1)NC(=O)c1csc([C@@H](C[C@H](C(C)C)N(C)C(=O)CNC(=O)[C@H]2CCCCN2C)OC(C)=O)n1	inactive
CCCCCCCCOC(=O)CCN1CC1	inactive
CCOC(=O)[C@@H](C)C[C@H](Cc1ccccc1)NC(=O)c1nc([C@@H](C[C@H](C(C)C)N(C)C(=O)[C@@H](NC(=O)[C@H]2CCCCN2C)C(C)C)OC(C)=O)sc1CCOCc1ccccc1	active
C/C(=C\c1ccn(-c2ccc(N)cc2)n1)[C@@H]1C[C@@H]2O[C@]2(C)CCC[C@H](C)[C@H](O)[C@@H](C)C(=O)C(C)(C)[C@@H](O)CC(=O)O1	inactive
NC(=S)c1cn(C2OC(CO)C(O)C2O)c2ncnc(N)c12 (configuration not stated)	active
Fc1ccc2c(c1)c(-c1nc(-c3c[nH]c4ncccc34)cs1)cn2CCCCN1CCCCC1	active
Nc1ccc2c(c1)Cc1cc(Br)ccc1-2	inactive
O=C(CN1CCN(C(=O)c2ccco2)CC1)Nc1ccc(Cl)cc1C(=O)c1ccccc1Cl	inactive
CCCCC1(CCC)C(=O)NC(=S)NC1=O	inactive
CC(=O)O[C@H](C[C@H](C(C)C)N(C)C(=O)[C@@H](NC(=O)[C@H]1CCCCN1C)C(C)(C)C)c1nc(C(=O)N[C@@H](Cc2ccccc2)C[C@H](C)C(=O)O)cs1	inactive
O=NN1CCCc2cccc(O)c21	inactive
